Exercise: state measured GI50 for each of the compounds provided.
# Test system: Malme-3M
# TEST DESCRIPTION: NCI tumour cell line growth inhibition, 48 h
Where a name gives a salt, the structure may show the parent alone. Active and inactive are the calls of the source. Cut-off read from the data, not from the text of the source: active = GI50 up to about 1.1 µM and inactive = higher. Non-standard residues stand in square brackets, D forms with d. Residues, ends and D or L forms follow the SMILES beside them.

Input line: # get_value(readout= GI50, system= Malme-3M) for Clc1ccc(-c2nc(-c3ccc(Cl)cc3)[s+]s2)cc1
Output line: 18.7 µM (inactive)

Input line: # get_value(readout= GI50, system= Malme-3M) for Cc1cc(O)c2c(c1)C(=O)c1cc(O)cc(O)c1C2=O [EMODIN]
Output line: 11 µM (inactive)

Input line: # get_value(readout= GI50, system= Malme-3M) for N=C(N)c1ccc(-c2ccc(-c3ccc(C(=N)N)cc3)o2)cc1 [FURAMIDINE HYDROCHLORIDE]
Output line: 18.6 µM (inactive)

Input line: # get_value(readout= GI50, system= Malme-3M) for Cc1ccc(C(=O)/C(C#N)=C/Nc2c(C)n(C)n(-c3ccccc3)c2=O)cc1
Output line: > 100 µM (inactive)

Input line: # get_value(readout= GI50, system= Malme-3M) for CC(C)(C)/N=C1\C(=O)C2(C)CCC1C2(C)C (stereo not drawn)
Output line: > 100 µM (inactive)

Input line: # get_value(readout= GI50, system= Malme-3M) for CCOC(=O)c1ccc2c(c1)Cc1cc([N+](=O)[O-])ccc1-2
Output line: > 100 µM (inactive)

Input line: # get_value(readout= GI50, system= Malme-3M) for CC(C)=CCC[C@@H](C)C1=C(O)C(=O)C(C)=C(Nc2ccccc2Cl)C1=O
Output line: 11.3 µM (inactive)

Input line: # get_value(readout= GI50, system= Malme-3M) for Cc1cccc(C)c1NC(=O)C(=O)CC(=O)/C=C/c1ccccc1
Output line: > 100 µM (inactive)

Input line: # get_value(readout= GI50, system= Malme-3M) for O=[N+]([O-])c1cc(CCl)ccc1CCl
Output line: 1.74 µM (inactive)

Input line: # get_value(readout= GI50, system= Malme-3M) for C#C[C@]1(O)CC[C@H]2[C@@H]3CCC4=C/C(=N\OCCN(CC)CC)CC[C@]4(C)[C@H]3CC[C@@]21C
Output line: 3.25 µM (inactive)

Input line: # get_value(readout= GI50, system= Malme-3M) for O=C(Nc1ccccc1C(=O)O)C(=Cc1ccccc1O)NC(=O)c1ccccc1
Output line: > 100 µM (inactive)

Input line: # get_value(readout= GI50, system= Malme-3M) for CSCC[C@H](NC(=O)[C@@H](N)CC(N)=O)C(=O)N[C@@H](Cc1c[nH]c2ccccc12)C(=O)N[C@@H](CCC(N)=O)C(=O)N[C@@H](CCC(=O)O)C(=O)N[C@H](C(=O)NCC(=O)N[C@@H](CCCCN)C(=O)N[C@H](C)C(=O)O)C(C)C (H-NMWQEVGK[dA]-OH)
Output line: > 100 µM (inactive)

Input line: # get_value(readout= GI50, system= Malme-3M) for CC(C(O)c1ccccc1)C(O)(C(F)(F)F)C(F)(F)F (stereo not drawn)
Output line: > 100 µM (inactive)

Input line: # get_value(readout= GI50, system= Malme-3M) for COC(=O)CC(C(C(=O)OCc1ccccc1)C(C)O)N1C(=O)OC(c2ccccc2)C1c1ccccc1 (stereo not drawn)
Output line: > 100 µM (inactive)

Input line: # get_value(readout= GI50, system= Malme-3M) for COc1c2c(c3c(c1C1OC(C)[C@@H](C)O1)CC(C)(C)O3)C(=O)c1ccccc1C2=O (stereo partly drawn)
Output line: 64.6 µM (inactive)

Input line: # get_value(readout= GI50, system= Malme-3M) for C/C=C1\CC(C(=O)OCC)CCCCCCC1=O (stereo not drawn)
Output line: > 100 µM (inactive)

Input line: # get_value(readout= GI50, system= Malme-3M) for C#CCn1c(I)cc2c(c1=O)COC(=O)[C@]2(O)CC
Output line: > 100 µM (inactive)

Input line: # get_value(readout= GI50, system= Malme-3M) for O=C(NCCCNCCN1C(=O)c2cccc3cc([N+](=O)[O-])cc(c23)C1=O)c1cc(-c2ccccc2)nc2ccccc12
Output line: 1.81 µM (inactive)
